TGI overview
- System: UO-31 renal
- protocol_notes: NCI tumour cell line growth inhibition, 48 h
measured_parameter: TGI

- compound: "O=C(O)/C=C\\C(=O)Nc1ccc2c(c1)C(=O)c1cc(F)ccc1-2"
  observed_value: "> 100 µM"
- compound: "COc1cc(OC)nc(Nc2c(C#N)c3nc4ccccc4n3c3ccccc23)n1"
  observed_value: "> 100 µM"
- compound: "CCn1cnc2c(NC(C)=O)ncnc21"
  observed_value: "> 100 µM"
- compound: "COC(=O)C1CCC(=O)N1C(c1ccc2c(c1)OCO2)c1ccc2c(c1)OCO2 (centres undefined)"
  observed_value: "> 100 µM"

###

- System: TK-10 renal
- protocol_notes: NCI tumour cell line growth inhibition, 48 h
measured_parameter: TGI

- molecule: "CC1(C)O[C@@H]2[C@@H]3OC(=O)C[C@@H]3[C@@H](COCc3ccccc3)[C@@H]2O1"
  measured_parameter: "TGI"
  observed_value: "> 100 µM"
- molecule: "CCN(CC)CCOc1ccc(C(=C2CCCCC2)c2ccc(OCCN(CC)CC)cc2)cc1"
  measured_parameter: "TGI"
  observed_value: "2.89 µM"
- molecule: "C[C@@]1(N2C(=O)OC[C@@H]2c2ccccc2)C(=O)N([C@H](CC(=O)N2CCC(N3CCCCC3)CC2)C(=O)NCc2cccc(C(F)(F)F)c2)[C@@H]1/C=C/c1ccccc1"
  measured_parameter: "TGI"
  observed_value: "3.76 µM"
- molecule: "C[C@]12CC[C@H]3[C@@H](C[C@@H]4N=C(c5ccc(O)cc5)S[C@@]45C[C@H](O)CC[C@]35C)[C@@H]1CC[C@@H]2O"
  measured_parameter: "TGI"
  observed_value: "> 100 µM"
- molecule: "C=C(C(=O)O)[C@@H]1C[C@@H]2O[C@H]1CC(C)=CCC/C(C)=C/CC[C@@]2(C)O"
  measured_parameter: "TGI"
  observed_value: "> 100 µM"
- molecule: "O=C1NN(c2ccccc2)C(=O)C2C3c4ccccc4C(c4ccccc43)C12 (stereo not given)"
  measured_parameter: "TGI"
  observed_value: "> 100 µM"
- molecule: "CN1CCCN(C(c2ccccc2)c2ccc(Br)cc2)CC1 (stereo not given)"
  measured_parameter: "TGI"
  observed_value: "22.7 µM"
- molecule: "O=C(O)c1cc(Sc2ccc([N+](=O)[O-])c(C(=O)O)c2)ccc1[N+](=O)[O-]"
  measured_parameter: "TGI"
  observed_value: "> 100 µM"
- molecule: "O=C1OC(c2ccccc2)N/C1=C\\c1ccc2c(c1)OCO2 (stereo not given)"
  measured_parameter: "TGI"
  observed_value: "> 100 µM"
- molecule: "Cc1ccc(S(=O)(=O)n2cc(-c3nnnn3-c3ccc(Cl)cc3)c(=O)c3ccccc32)cc1"
  measured_parameter: "TGI"
  observed_value: "> 100 µM"
- molecule: "CN(C)/C(N)=N/C(N)=S"
  measured_parameter: "TGI"
  observed_value: "> 100 µM"
- molecule: "CCN(CC)c1nc(N(C)C)c2cc(OC)ccc2n1"
  measured_parameter: "TGI"
  observed_value: "> 100 µM"
- molecule: "CCN(CC(COc1ccc2c(c1)[n+]([O-])nc(N)[n+]2[O-])OC(C)=O)C(C)=O (stereo not given)"
  measured_parameter: "TGI"
  observed_value: "> 100 µM"
- molecule: "Oc1cc2ccccc2cc1-c1n[nH]c(=S)n1-c1ccc(Cl)cc1"
  measured_parameter: "TGI"
  observed_value: "63 µM"
- molecule: "c1ccc(C2N3CCCCC3[C@@H]3c4[nH]c5ccccc5c4CCN23)cc1 (stereo not given in full)"
  measured_parameter: "TGI"
  observed_value: "> 100 µM"
- molecule: "COC(=O)C(Cc1nc2ccccc2[nH]c1=O)C(=O)C(=O)Nc1ccc(OC)cc1[N+](=O)[O-] (stereo not given)"
  measured_parameter: "TGI"
  observed_value: "> 100 µM"
- molecule: "COC(=O)c1scc(N)c1-n1ccc(=O)[nH]c1=O"
  measured_parameter: "TGI"
  observed_value: "> 100 µM"
- molecule: "CCc1ccc(Nc2cc(C)nc3nc(C)nn23)cc1"
  measured_parameter: "TGI"
  observed_value: "> 100 µM"
- molecule: "COC(=O)NN1C(C)=C(C(=O)OC)C2(CCOC2=O)C1(C)O (stereo not given)"
  measured_parameter: "TGI"
  observed_value: "> 100 µM"
- molecule: "BrC12c3ccccc3Sc3ccccc3C1(Br)c1ccccc12 (stereo not given)"
  measured_parameter: "TGI"
  observed_value: "99.6 µM"
- molecule: "Nc1ccc(N)c2c1C(=O)c1c(N)ccc(N)c1C2=O"
  measured_parameter: "TGI"
  observed_value: "> 100 µM"
- molecule: "CC[C@]12CCCN3CC[C@]4(C(=C(C(=O)OC)C1)Nc1ccccc14)[C@@H]32"
  measured_parameter: "TGI"
  observed_value: "56.7 µM"
- molecule: "O=C(O)C1OC(Oc2cc(O)c3c(=O)cc(-c4ccc(O)cc4)oc3c2)C(O)C(O)C1O (stereo not given)"
  measured_parameter: "TGI"
  observed_value: "> 100 µM"
- molecule: "Cc1nn(-c2ccc(Br)cc2)c(C)c1CC(=O)c1cc(O)ccc1O"
  measured_parameter: "TGI"
  observed_value: "> 50 µM"
- molecule: "Cc1c2cccc-2c(OCCO)cc2c1[nH]c1ccccc12"
  measured_parameter: "TGI"
  observed_value: "14.2 µM"
- molecule: "Cc1cc2c(cc1C)[n+](=O)c(C(=O)/C=C/c1ccccc1Cl)c(C)n2[O-]"
  measured_parameter: "TGI"
  observed_value: "57.3 µM"
- molecule: "Nc1nc2c(c3cnccc13)C(c1cccc(Cl)c1)Cc1cnccc1-2 (stereo not given)"
  measured_parameter: "TGI"
  observed_value: "13.7 µM"
- molecule: "N#CC(c1cc(Cl)ncn1)c1nc2ccccc2s1 (stereo not given)"
  measured_parameter: "TGI"
  observed_value: "> 100 µM"
- molecule: "O=c1cccc(C#CC#C/C=C/CO)o1"
  measured_parameter: "TGI"
  observed_value: "4.66 µM"
- molecule: "S=C(Nc1ccccc1)N1N=C2c3ccccc3CC[C@H]2[C@@H]1c1ccccc1"
  measured_parameter: "TGI"
  observed_value: "> 100 µM"
